assay.explanation: sensitizers of A549 cells to miR-34 induction, primary screen, imaging, A549 dox-inducible miR-34, nuclei and caspase counts (AID 1347080); also: test concentration not given here
conditions: A549 miR-34 inducible, Hoechst nuclei count, 48 h; measured here: total cells with miR-34 induction; stronger effect = lower value
assay.endpoint: cell count
Reply: number alone, nothing else.

Past entries and their recorded results:
{"compound": "N#C/C(=C\\c1ccc(O)c(O)c1)C(N)=S", "assay.endpoint": "cell count", "readout.value": 4790}
{"compound": "Cc1cc(C(=O)CN2CCCC2)c(C)n1-c1ccc(F)cc1", "assay.endpoint": "cell count", "readout.value": 8040}
{"compound": "C[C@]12CC[C@H](OC3OC(O)C(O)C(O)C3O)C=C1CCC1C2CC[C@]2(C)[C@@H](c3ccc(=O)oc3)CC[C@]12O (stereo partly drawn)", "assay.endpoint": "cell count", "readout.value": 150}
{"compound": "C#CC(C)(O)CC (stereo not drawn)", "assay.endpoint": "cell count", "readout.value": 8040}
{"compound": "CCOP(=S)(OCC)Oc1cc(C)nc(C(C)C)n1", "assay.endpoint": "cell count", "readout.value": 9160}

Which value of cell count has been reported for CO[C@H](C)C(O)(C(=O)OCC1=CCN2CC[C@H](O)[C@@H]12)C(C)C (stereo partly drawn) in the records? 8290

Fill in: cell count of CCOC(=O)c1ncc2[nH]c3ccc(OCc4ccccc4)cc3c2c1COC is ___ 2080

Recorded cell count for C[C@]12CCC(=O)C=C1CCC1C2CC[C@@]2(C)C1CC[C@]2(C)O (stereo partly drawn) , please? 2670

# query: cell count of entry O=C1C=CC[C@@H]2[C@@H]3CCCN4CCC[C@@H](CN12)[C@@H]34 9530
